Some molecules, each annotated with its measured logP.

Solved cases (4 shown):
{"molecule": "O=C1c2ccccc2C(=O)C1c1cccc(C(F)(F)F)c1", "property_label": "logP", "meas_value": 3.78}
{"molecule": "CO[C@@]1(NC(=O)CSCC#N)C(=O)N2C(C(=O)O)=C(CSc3nnnn3C)CS[C@@H]21", "property_label": "logP", "meas_value": -0.6}
{"molecule": "Nc1ncnc2c1ncn2C1C=CC(CO)O1 (stereo not given)", "property_label": "logP", "meas_value": -0.5}
{"molecule": "CCN1CC(C(O)C(CC2CCCCC2)NC(=O)C(Cc2cc[nH]n2)NC(=O)C(CC(=O)N2CCOCC2)Cc2ccccc2)OC1=O (stereo not given)", "property_label": "logP", "meas_value": 2.49}

Exam item: # logP lookup, item `CC(C)c1nnc(SCC(=O)c2ccccc2)n(N)c1=O`
Marked response: 2.07

Exam item: # logP lookup, item `Cc1cc(Br)cc(C(=O)NC(C)C)c1O`
Marked response: 4.19

Exam item: # logP lookup, item Cc1cccc(C)c1NC(=O)CCC(C)N (stereo not given)
Marked response: 1.08

* * *

Some compounds, each annotated with its measured logP.
The answer should be a number; do not append a unit.

Solved cases (2 shown):
{"mol": "Cc1cnc(NS(=O)(=O)c2ccc(N)cc2)nc1", "property_label": "logP", "meas_value": 0.34}
{"mol": "CCOc1cc(Cc2cnc(N)nc2N)ccc1OC", "property_label": "logP", "meas_value": 1.2}

Let's switch to this compound now.
Exam item: # logP lookup, item `COc1cccc(NC(=O)CN2CCCCC2)c1`
Marked response: 2.71

* * *

Some molecules, each annotated with its measured logP.
The answer should be a number; do not append a unit.

Solved cases (5 shown):
{"molecule": "O=C(O)Cc1ccc2c(c1)C(=O)c1ccccc1CS2", "property_label": "logP", "meas_value": 2.97}
{"molecule": "CS(=O)CCn1ccnc1[N+](=O)[O-] (centres undefined)", "property_label": "logP", "meas_value": -1.22}
{"molecule": "CC(C(=O)O)c1ccc(N2Cc3ccccc3C2=O)cc1 (centres undefined)", "property_label": "logP", "meas_value": 2.77}
{"molecule": "COc1ccc(CCNCC(O)COc2ccc(COCc3ncc[nH]3)cc2)cc1OC (centres undefined)", "property_label": "logP", "meas_value": 1.29}
{"molecule": "O=C(O)C1CCc2cc(Cl)ccc2O1 (centres undefined)", "property_label": "logP", "meas_value": 2.4}

Let's switch to this molecule now.
Exam item: # logP lookup, item `CCOc1ccc(NC(=O)CN2CCCCC2)cc1`
Marked response: 2.82

* * *

The following ranges of logP define the classes used here: low bin: < 1; mid bin: ≥ 1 and < 3; high bin: ≥ 3

Examples with answers:
{"compound": "C=CC1CCC2OC2C1 (centres undefined)", "group_label": "mid bin"}
{"compound": "O=C1c2ccccc2C(=O)C1c1ccc(-c2ccccc2)cc1", "group_label": "high bin"}
{"compound": "CC(C(N)=O)n1nnc2ccccc21 (centres undefined)", "group_label": "low bin"}

Exam item: Category of `NC(=O)c1cc(Cl)ccc1NCCO` :
Marked response: mid bin

Exam item: Category of CNC(=O)COc1ccc(OCC(O)CNC(C)C)cc1 (centres undefined) :
Marked response: low bin

Exam item: Category of `COc1c(Br)cc(Br)cc1Br` :
Marked response: high bin
